- Study Target: Glucocorticoid receptor (Homo sapiens, UniProt P04150)
- Sequence (P04150 whole entry): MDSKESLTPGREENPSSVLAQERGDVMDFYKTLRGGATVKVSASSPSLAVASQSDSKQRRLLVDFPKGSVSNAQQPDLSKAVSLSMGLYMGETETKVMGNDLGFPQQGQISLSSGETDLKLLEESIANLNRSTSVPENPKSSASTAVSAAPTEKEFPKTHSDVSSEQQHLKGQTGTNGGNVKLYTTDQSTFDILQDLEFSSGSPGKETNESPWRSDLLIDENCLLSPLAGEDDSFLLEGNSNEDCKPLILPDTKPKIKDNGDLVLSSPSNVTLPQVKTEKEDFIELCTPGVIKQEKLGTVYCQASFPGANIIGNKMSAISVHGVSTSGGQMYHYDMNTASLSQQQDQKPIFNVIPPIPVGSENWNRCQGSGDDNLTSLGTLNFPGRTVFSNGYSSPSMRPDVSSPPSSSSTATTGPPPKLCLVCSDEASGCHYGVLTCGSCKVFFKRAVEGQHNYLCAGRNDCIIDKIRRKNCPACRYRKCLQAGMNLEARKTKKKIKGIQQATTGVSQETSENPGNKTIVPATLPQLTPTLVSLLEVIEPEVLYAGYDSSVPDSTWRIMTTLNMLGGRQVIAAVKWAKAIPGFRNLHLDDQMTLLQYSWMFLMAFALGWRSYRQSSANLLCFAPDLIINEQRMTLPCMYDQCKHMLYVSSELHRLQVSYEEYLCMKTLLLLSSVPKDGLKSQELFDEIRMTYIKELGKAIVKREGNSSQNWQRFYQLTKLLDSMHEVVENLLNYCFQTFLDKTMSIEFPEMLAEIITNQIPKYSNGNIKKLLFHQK
pIC50: −log10 of the molar value.
Measure: pIC50

INSERT INTO results (molecule_smiles, measure, readout_value) VALUES
  ('COc1ccc(F)cc1C(C)(C)C[C@](O)(Cc1ccc(Cl)cc1)C(F)(F)F', 'pIC50', 5.70);
